- Tested on: SR leukemia
- Experiment Description: NCI-60 one-dose screen, 48 h
- Measurement Parameters: 10 µM unless noted
About 83,000 compounds went through this panel and 20% of them were active in at least one assay; those are over-represented in the sample as a whole. The source made the active and inactive calls. The calls were made as follows: active = growth percent below 10; inactive = the rest.
Hello, when you answer, please use one of the following outcomes: Yes (active), No (inactive)

Here's what some known entries look like.
> print(dat)
                                   compound  label.class
1  COc1ccc(N(Cc2cc(OC)c(OC)c(OC)c2)C2OC(=O)c3ccccc32)cc1 (centres undefined)           No
2  O=C1C=CC(=O)N1c1ccc(Cc2ccc(N3C(=O)C=CC3=O)cc2)cc1           No
3                 CCCCCn1cnc2c(=S)nc[nH]c21           No
4  COc1cc(-c2c3sc(=O)[nH]c3nc3c2c(=O)[nH]n3C(C)C)cc2c1OCO2           No
5   Brc1cccc(-c2nc(-c3ccc4c(c3)OCCO4)co2)c1           No

stdin: Called result for COc1cc(NC(N)=NCC(C)(C)COc2ccc(C(F)(F)F)cc2)cnc1C#N
stdout: No

stdin: Called result for Cc1ccc(NC(=O)c2sc3nc4c(cc3c2N)C(=O)CCC4)cc1C
stdout: No

###

Can you tell me growth for the items I'm about to list?
- Test system: HOP-92 NSCLC
- Experiment Description: NCI-60 one-dose screen, 48 h (100 = growth as untreated, 0 = no growth, -100 = all killed)
- Measurement Parameters: 10 µM unless noted
The panel holds about 83,000 compounds, 20% with a hit somewhere; the sample as a whole holds those more often.
Give bare numbers, in %.

Use these answered entries as a reference point.
> print(dat)
                                   compound  recorded.measurement
1  CN1CCCCC1CCN1c2ccccc2Sc2ccc(Br)cc21 (stereo not drawn)                  45.5
2      COc1ccc(CCN2CCCn3c2nc2ccccc2c3=O)cc1                  46.5

Next up:
stdin: # get_value(readout='growth', item= O=C(Nc1cccc2c1C(=O)c1cccc(Nc3cccc4c3C(=O)c3cccc(NC(=O)c5ccccc5)c3C4=O)c1C2=O)c1ccccc1 )
stdout: 90.7

###

- Test system: HT29 colon
- Experiment Description: NCI-60 one-dose screen, 48 h (100 = growth as untreated, 0 = no growth, -100 = all killed)
- Measurement Parameters: 10 µM unless noted
This is part of a sample that, as a whole, favours compounds with a hit. Of some 83,000 tested, about 20% had one in any assay.
Can you tell me growth for the items I'm about to list?
One number for each entry, in %.

> print(dat)
                                        smi  measure.name  measure.unit  recorded.measurement
1  COC(=O)[C@H](C(C)C)n1c(=O)c2cc(OC)c(OC)cc2c2cnc3[nH]ccc3c21        growth             %                  45.5
2    NCCN1CCN(c2nccc(-c3ccc4ccccc4c3)n2)CC1        growth             %                 -33.6
3              CCNS(=O)(=O)c1ncnc2nc[nH]c12        growth             %                   114

Next up:
stdin: # get_value(readout='growth', item= O=C(/C=C\c1ccc2ccccc2n1)c1cc(Cl)ccc1O )
stdout: 71.6
